Target: IDO (Homo sapiens, UniProt P14902)
Sequence (P14902 whole entry): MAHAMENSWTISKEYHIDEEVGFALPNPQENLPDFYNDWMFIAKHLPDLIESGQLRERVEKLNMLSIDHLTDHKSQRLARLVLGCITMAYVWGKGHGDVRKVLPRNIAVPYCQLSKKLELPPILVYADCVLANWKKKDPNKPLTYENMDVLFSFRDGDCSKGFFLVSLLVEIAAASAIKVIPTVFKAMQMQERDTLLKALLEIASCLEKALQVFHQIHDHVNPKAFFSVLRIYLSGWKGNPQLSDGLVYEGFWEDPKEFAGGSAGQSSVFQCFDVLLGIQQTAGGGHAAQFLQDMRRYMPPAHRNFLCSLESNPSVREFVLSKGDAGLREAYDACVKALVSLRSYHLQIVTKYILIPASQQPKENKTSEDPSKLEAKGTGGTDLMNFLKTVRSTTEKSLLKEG
Assay: hIDO biochemical coupled assay
Conditions: 45 μM L-tryptophan, 17 minutes, room temperature; read-out: hIDO biochemical assay pIC50 (converted)
Reported Endpoint: IC50

Below: 5 compounds and their reported IC50.
{"columns": ["Compound", "IC50"],
 "data": [
  ["CN1CNC(=O)C12CCN(c1cc(Cl)cc3[nH]ncc13)CC2", "> 100 µM"],
  ["CS(=O)(=O)Nc1ccc(-c2cc(Cl)cc3[nH]ncc23)cc1", "> 100 µM"],
  ["O=C(O)c1ccc(-c2cc(Cl)cc3[nH]ncc23)cc1", "> 100 µM"],
  ["CC(=O)N(C)C1CCN(c2cc(Cl)cc3[nH]ncc23)CC1(C)C (stereo not shown)", "< 3.16 µM"],
  ["O=C(Nc1cccc2[nH]ncc12)C1CCOCC1", "> 100 µM"]
]}

What does the record list as IC50 for CS(=O)(=O)N1CCC(C(O)c2cc(Cl)cc3[nH]ncc23)CC1 (stereo not shown) ? > 100 µM

What does the record list as IC50 for OC1(c2cc(Cl)cc3[nH]ncc23)CCOCC1 ? 3.24 to 31.6 µM

---

Biological target: IDO (Homo sapiens, UniProt P14902)
Assay: SKOV3 kynurenine cell-based assay (IDO induced by IFN-γ)
Parameters: IDO expression was induced in the SKOV3 cells by the addition of 500 ng/ml IFN-γ; endogenous in cells; host or cells: SKOV3 (human ovarian adenocarcinoma), induced with IFN-γ
Conditions: SKOV3 human ovarian adenocarcinoma cells, 500 ng/ml IFN-γ, 48 hours, 500 μM L-tryptophan; read-out: SKOV3 Kynurenine cell based assay pIC50 (converted)
Description: Exemplary compounds of the invention were prepared, and tested to determine their effect as TDO and/or IDO inhibitors. […] This coupled enzyme system allowed conversion of N-formylkynurenine produced by TDO or IDO activity to kynurenine which was then quantified by fluorescence following addition of Erhlich's Reagent The protocols for these are set out below. […]
Reported Endpoint: IC50

{"columns": ["Compound", "Measurement Target", "Assay Result"],
 "data": [
  ["CN1C(=O)[C@@H]2CC[C@H]1CN(c1cc(Br)cc3[nH]ncc13)C2", "IDO (Homo sapiens, UniProt P14902)", "> 100 µM"],
  ["CN(C)S(=O)(=O)N1CCN(c2cccc3[nH]ncc23)CC1", "IDO (Homo sapiens, UniProt P14902)", "32.4 to 100 µM"]
]}

What does the record list as IC50 for CN1CCN(c2cc(Cl)cc3[nH]ncc23)CC1=O ? > 100 µM

What does the record list as IC50 for CC(=O)N1CCN(c2cc(Cl)cc3c(N)n[nH]c23)CC1 ? 3.24 to 31.6 µM

What does the record list as IC50 for CC1(C)CC(c2cccc3[nH]ncc23)CCN1S(C)(=O)=O (centres unmarked) ? 32.4 to 100 µM

What does the record list as IC50 for CN(CCNc1cccc2[nH]ncc12)S(C)(=O)=O ? > 100 µM

What does the record list as IC50 for NC(=O)C1CCN(c2cc(Cl)cc3[nH]ncc23)CC1 ? 3.24 to 31.6 µM

---

Target: IDO (Homo sapiens, UniProt P14902)
Test: hIDO biochemical coupled assay
Conditions: 45 μM L-tryptophan, 17 minutes, room temperature; read-out: hIDO biochemical assay pIC50 (converted)
Reported Endpoint: IC50

Below: 4 compounds and their reported IC50.
{"columns": ["Molecular String", "Assay Result"],
 "data": [
  ["CN(C)S(=O)(=O)N1CCN(c2cccc3[nH]ncc23)CC1", "> 100 µM"],
  ["CNC(=O)NC1CCN(c2cc(Cl)cc3[nH]ncc23)CC1", "32.4 to 100 µM"],
  ["CC(=O)N(C)c1cc(N2CCN(S(C)(=O)=O)CC2)c2cn[nH]c2c1", "> 100 µM"],
  ["CS(=O)(=O)N1CCC(n2cc(-c3cc(Cl)cc4[nH]ncc34)cn2)CC1", "> 100 µM"]
]}

Okay, now this compound:
What does the record list as IC50 for Cc1nn(C)c2c1CN(c1cc(Cl)cc3[nH]ncc13)CC2 ? > 100 µM
